The measured values listed here are drawn from ChEMBL document CHEMBL1139777.

- Organism: Homo sapiens
- EXPERIMENTAL PROTOCOL: Selectivity for PDE4B over PDE10
RECORDED METRIC: Selectivity ratio
Answers are plain numbers.

COMPOUND STRING | MEASURED VALUE
COc1ccc(-c2nc(C(=O)N3CCN(S(=O)(=O)N(C)C)CC3)c(CN)o2)c2ccc(C(F)(F)F)nc12 | 1000

Provide each entry's Selectivity ratio from the list below.
1. COc1ccc(-c2nc(C(=O)N3CCC4(CC3)C(=O)NCN4c3ccccc3)c(CN)o2)c2ccc(C(F)(F)F)nc12
2. COc1ccc(-c2nc(C(=O)N3CCN(C(=O)c4cc(C)[nH]n4)CC3)c(CN)o2)c2ccc(C(F)(F)F)nc12

-- reply
[20, 1000]

-- ask Tell me the measured Selectivity ratio of COc1ccc(-c2nc(C(=O)N3CCN(C(=O)c4ccccn4)CC3)c(CN)o2)c2ccc(C(F)(F)F)nc12 , please.
-- reply 1000

###

- EXPERIMENTAL PROTOCOL: Cmax in rat at 10 mg/kg, po
- Format: ADME, organism-based
- Parameters: dose 10 mg/kg, route oral
- APPLIED CONDITIONS: in vivo
RECORDED METRIC: Cmax (µM)
Numbers only, in µM.

Field: example entries. Status: answers known.
COMPOUND STRING | DISPLAY UNIT | MEASURED VALUE
COc1ccc(-c2nc(C(=O)N3CCN(C(=O)c4ccccn4)CC3)c(CN)o2)c2ccc(C(F)(F)F)nc12 | µM | 0.73
COc1ccc(-c2nc(C(=O)N3CCN(C(=O)OC(C)(C)C)CC3)c(CN)o2)c2ccc(C(F)(F)F)nc12 | µM | 1.4
COc1cc(OC)nc(N2CCN(C(=O)c3nc(-c4ccc(OC)c5nc(C(F)(F)F)ccc45)oc3CN)CC2)n1 | µM | 0.23
COc1ccc(-c2nc(C(=O)N3CCC(O)(c4ccccc4)CC3)c(CN)o2)c2ccc(C(F)(F)F)nc12 | µM | 0.17

Need Cmax for each of these molecules.
1. COc1ccc(-c2nc(C(=O)N3CC[C@@H](NC(=O)OC(C)(C)C)C3)c(CN)o2)c2ccc(C(F)(F)F)nc12
2. CO/N=C(\c1ccccn1)C1CCN(C(=O)c2nc(-c3ccc(OC)c4nc(C(F)(F)F)ccc34)oc2CN)CC1

-- reply
1: 0.61; 2: 0.61

-- ask Could you share which Cmax value was measured for COc1ccc(-c2nc(C(=O)N3CCN(c4ncccn4)CC3)c(CN)o2)c2ccc(C(F)(F)F)nc12 ?
-- reply 9.5

###

- Organism: Homo sapiens
- EXPERIMENTAL PROTOCOL: Selectivity for PDE4B over PDE11
Provide the reported Selectivity ratio of each item.
Numbers only.

Take a look at these entries with their results.
COMPOUND STRING | Selectivity ratio
COc1ccc(-c2nc(C(=O)N3CCN(C(=O)c4ccccn4)CC3)c(CN)o2)c2ccc(C(F)(F)F)nc12 | 1000
COc1ccc(-c2nc(C(=O)N3CCC4(CC3)C(=O)NCN4c3ccccc3)c(CN)o2)c2ccc(C(F)(F)F)nc12 | 130
COc1ccc(-c2nc(C(=O)N3CCN(S(=O)(=O)N(C)C)CC3)c(CN)o2)c2ccc(C(F)(F)F)nc12 | 1000

Let's switch to this compound now.
-- ask Query: Selectivity ratio; subject: COc1ccc(-c2nc(C(=O)N3CCN(C(=O)c4cc(C)[nH]n4)CC3)c(CN)o2)c2ccc(C(F)(F)F)nc12
-- reply 1000

###

- Tested on: Rattus norvegicus
- EXPERIMENTAL PROTOCOL: Antiinflammatory activity in po dosed rat lipopolysaccharide-induced pulmonary inflammation model assessed as inhibition of polymorphonuclear cells
- Type: functional
Provide the reported ED50 of each item.
Give bare numbers, in mg/kg.

Record excerpt, results attached:
COMPOUND STRING | ED50, mg/kg
COc1cc(OC)nc(N2CCN(C(=O)c3nc(-c4ccc(OC)c5nc(C(F)(F)F)ccc45)oc3CN)CC2)n1 | 2
COc1ccc(-c2nc(C(=O)N3CCN(C(=O)c4ccccn4)CC3)c(CN)o2)c2ccc(C(F)(F)F)nc12 | 0.6
COc1ccc(-c2nc(C(=O)N3CCC(O)(c4ccccc4)CC3)c(CN)o2)c2ccc(C(F)(F)F)nc12 | 2

-- ask Fill blank: measured ED50 of the compound COc1ccc(-c2nc(C(=O)N3CC[C@@H](NC(=O)OC(C)(C)C)C3)c(CN)o2)c2ccc(C(F)(F)F)nc12 is ____.
-- reply 0.2

###

- System: Cynomolgus monkey
- EXPERIMENTAL PROTOCOL: AUC in cynomolgus monkey at 30 mg/kg, po
- Assay type: ADME, organism-based, Macaca fascicularis, Plasma
- Parameters: dose 30 mg/kg, route oral
- APPLIED CONDITIONS: in vivo
RECORDED METRIC: AUC
Please make sure the unit comes right after the number.

-- ask What value of AUC has been reported for the following compound? COc1ccc(-c2nc(C(=O)N3CCN(c4ncccn4)CC3)c(CN)o2)c2ccc(C(F)(F)F)nc12
-- reply 130 µM·h

###

- SYSTEM: cAMP and cAMP-inhibited cGMP 3',5'-cyclic phosphodiesterase 10A (Homo sapiens)
- Sequence (Q9Y233 whole entry): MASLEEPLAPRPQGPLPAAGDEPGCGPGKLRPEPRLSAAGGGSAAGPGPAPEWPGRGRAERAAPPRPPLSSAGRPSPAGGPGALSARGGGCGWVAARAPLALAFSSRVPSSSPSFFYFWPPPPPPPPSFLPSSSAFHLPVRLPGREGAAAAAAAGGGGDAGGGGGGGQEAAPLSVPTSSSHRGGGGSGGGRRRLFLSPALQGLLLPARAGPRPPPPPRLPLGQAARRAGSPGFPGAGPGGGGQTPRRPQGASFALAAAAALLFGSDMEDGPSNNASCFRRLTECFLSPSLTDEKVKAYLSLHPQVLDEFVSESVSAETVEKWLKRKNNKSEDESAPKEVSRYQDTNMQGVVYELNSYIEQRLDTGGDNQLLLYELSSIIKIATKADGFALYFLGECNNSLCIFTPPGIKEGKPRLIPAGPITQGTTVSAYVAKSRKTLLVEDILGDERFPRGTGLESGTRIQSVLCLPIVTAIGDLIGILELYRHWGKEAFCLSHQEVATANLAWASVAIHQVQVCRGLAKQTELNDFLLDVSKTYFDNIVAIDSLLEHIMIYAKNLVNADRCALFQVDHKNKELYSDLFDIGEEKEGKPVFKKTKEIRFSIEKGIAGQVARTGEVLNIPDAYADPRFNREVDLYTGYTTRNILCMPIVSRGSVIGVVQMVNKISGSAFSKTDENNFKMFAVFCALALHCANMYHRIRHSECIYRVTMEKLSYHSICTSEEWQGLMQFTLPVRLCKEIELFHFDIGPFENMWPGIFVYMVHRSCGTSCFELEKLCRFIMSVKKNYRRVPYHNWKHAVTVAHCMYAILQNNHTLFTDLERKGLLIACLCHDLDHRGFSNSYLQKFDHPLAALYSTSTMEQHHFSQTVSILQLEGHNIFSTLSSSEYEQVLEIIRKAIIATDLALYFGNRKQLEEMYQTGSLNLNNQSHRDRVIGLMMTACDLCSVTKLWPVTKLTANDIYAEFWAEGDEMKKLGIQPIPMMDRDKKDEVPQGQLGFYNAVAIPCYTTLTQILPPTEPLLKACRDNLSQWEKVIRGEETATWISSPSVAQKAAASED
I'd appreciate it if you could supply IC50 values for the items below.
One number for each entry, in nM.

Answered cases to consult:
COMPOUND STRING | IC50 / nM
CO/N=C(\c1ccccn1)C1CCN(C(=O)c2nc(-c3ccc(OC)c4nc(C(F)(F)F)ccc34)oc2CN)CC1 | 120
COc1ccc(-c2nc(C(=O)N3CCN(C(=O)c4ccccn4)CC3)c(CN)o2)c2ccc(C(F)(F)F)nc12 | 1900

API: the following record is the query input.
-- ask Query IC50 on cAMP and cAMP-inhibited cGMP 3',5'-cyclic phosphodiesterase 10A (Homo sapiens) for COc1ccc(-c2nc(C(=O)N3CCN(C(=O)c4cc(C)[nH]n4)CC3)c(CN)o2)c2ccc(C(F)(F)F)nc12
-- reply 1500
